# Target Or System: T1, Human IL-33-his (human, UniProt O95760 112-270, biotinylated with EZ-Link NHS-Biotin where used as IL-33-his-biotin)
# T1 construct: Used plain (SPR, cell assays) and biotinylated (ELISA); also called IL-33-his-biotin
# T1 sequence: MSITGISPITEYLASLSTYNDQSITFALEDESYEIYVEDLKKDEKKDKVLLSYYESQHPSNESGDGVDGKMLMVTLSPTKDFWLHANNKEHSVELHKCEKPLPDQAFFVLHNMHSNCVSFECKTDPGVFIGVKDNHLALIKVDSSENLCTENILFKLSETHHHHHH
# Assay: SPR Biacore 8K, antibody captured on Protein A/G chip, IL-33-his as analyte, 1:1 model
Outcome Measure: Kd (nM)
Reply numerically in nM, unit not repeated.

Observe how each entry below is paired with its result.
864F3-Hu5 (antibody, human IgG4 S228P, kappa, V domains shown, Humanized; also called humanized antibody 864F3-Hu5) VH: QVQLQESGPGLVKPSETLSLTCTVSGFSLSKYGVHWIRQPPGKGLEWLGVLRAGGTISYNSALMSRLTISEDISKSQVSLKLSSVTAADTAVYYCARDHYYYSSFGGFASWGQGTLVTVSS VL: DIQMTQSPSSLSASVGDRVTITCLASQTIATWLAWYQQKPGKSPKLLIYAATRLADGVPSRFSGSGSGTDFTLTISSLQPEDFATYYCQQLYNTPYTFGQGTKVEIKR ... 1.36
874F7-Hu2 (antibody, human IgG4 S228P, kappa, V domains shown, Humanized; also called humanized antibody 874F7-Hu2) VH: QVQLQESGPGLVKPSETLSLTCTVSGFSLSKYGVHWIRQPPGKGLEWLGVLRAGGSTGYNSALMSRLTISKDSSKSQVSLKLSSVTAADTAVYYCVRDHYYYSSYGGFVYWGQGTLVTVSS VL: DIQMTQSPSSVSASVGDRVTITCLASQTIGAWLAWYQQKPGKSPKLLIYAATRLADGVPSRFSGSGSGTDFTLTISSLQPEDFATYYCQQLDSSPYTFGQGTKVEIKR ... 2.97

Exercise: Form field: reported Kd of 871G1-Hu2 (antibody, human IgG4 S228P, kappa, V domains shown, Humanized; also called humanized antibody 871G1-Hu2) VH: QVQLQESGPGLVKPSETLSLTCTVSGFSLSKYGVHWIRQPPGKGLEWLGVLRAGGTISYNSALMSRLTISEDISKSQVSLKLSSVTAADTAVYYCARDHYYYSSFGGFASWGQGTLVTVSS VL: DIQMTQSPSSVSASVGDRVTITCLASQTIGAWLAWYQQKPGKSPKLLIYAATRLADGVPSRFSGSGSGTDFTLTISSLQPEDFATYYCQQLNSTPYTFGQGTKVEIKR
Key: 1.76
